# Test system: MelJuSo cells
# TEST_METHOD_NOTES: Cell viability (CellTiter-Glo ATP content) in MelJuSo cells
# Format: cell-based
# TEST_SETTINGS: Homo sapiens, MEL-JUSO, 72 hours treatment, cell survival by CellTiter-Glo, 2% fetal bovine serum
# Description: Logarithmically growing A549, LOX and MelJuSo cells (ATCC) were plated in antibiotic-free RPMI medium (Coming) supplemented with 2% fetal bovine serum (Gemini Bio-products) at a density of 5,000 cells per well in clear-bottom 96-well plates. […] Signal intensity was measured on a Glomax™ 96 Microplate Luminometer (Promega) and percent cell survival was calculated based on the reading of vehicle control cells set as 100%.
IC50 reference

>  <MOLECULE>
CC(C)(CO)CCCNC(=O)C1(C)C(c2ccncc2)C(c2ccc(F)cc2)=NN1c1ccccc1 (centres unmarked)

>  <IC50>
> 2 µM

$$$$
>  <MOLECULE>
CCCCC1C(c2ccc(F)cc2)=NN(c2ccc(F)cc2F)C1(C)C(=O)N(C)CCCOC (centres unmarked)

>  <IC50>
> 2 µM

$$$$
>  <MOLECULE>
CCCCC1C(c2ccc(F)cc2)=NN(c2ccc(F)cc2F)C1(C)C(=O)NCCCCC(C)(C)O (centres unmarked)

>  <IC50>
0.5 to 1 µM

$$$$
>  <MOLECULE>
COC(=O)CNC(=O)C1(C)C(c2ccoc2)C(c2ccc(F)cc2F)=NN1c1ccc(F)cc1F (centres unmarked)

>  <IC50>
0.25 to 0.5 µM

$$$$
>  <MOLECULE>
CCCCC1C(c2ccc(F)cc2)=NN(c2ccc(F)cc2F)C1(C)C(=O)NCCOCC (centres unmarked)

>  <IC50>
0.25 to 0.5 µM

$$$$
>  <MOLECULE>
CC1(C(=O)NCCCN2CCOCC2)C(c2cccs2)C(c2ccc(F)cc2)=NN1c1ccc(F)cc1F (centres unmarked)

>  <IC50>
> 2 µM

$$$$
>  <MOLECULE>
COCCNC(=O)C1(C)C(c2cccs2)C(c2ccc(F)cc2)=NN1c1ccc(C)cc1 (centres unmarked)

>  <IC50>
< 0.25 µM

$$$$
>  <MOLECULE>
CCCCC1C(c2ccc(F)cc2)=NN(c2ccc(F)cc2F)C1(C)C(=O)NCCC#N (centres unmarked)

>  <IC50>
0.5 to 1 µM

$$$$

* * *

IC50 reference
# System: MelJuSo cells
# TEST_METHOD_NOTES: Cell viability (CellTiter-Glo ATP content) in MelJuSo cells
# Assay type: cell-based
# TEST_SETTINGS: 72 hours treatment, cell survival by CellTiter-Glo, 2% fetal bovine serum
MEASURED_ATTRIBUTE: IC50

>  <COMPOUND>
CCCCC1C(c2ccc(F)cc2)=NN(c2ccc(C)cc2)C1(C)C(=O)NCCCC(C)(C)CO (centres unmarked)

>  <MEASURED_ATTRIBUTE>
IC50

>  <RECORDED_MEASUREMENT>
0.25 to 0.5 µM

$$$$
>  <COMPOUND>
COC(=O)CNC(=O)C1(C)C(c2ccc(Cl)o2)C(c2ccc(F)cc2F)=NN1c1ccc(F)cc1F (centres unmarked)

>  <MEASURED_ATTRIBUTE>
IC50

>  <RECORDED_MEASUREMENT>
< 0.25 µM

$$$$

* * *

IC50 reference
# Tested on: A549 cells
# TEST_METHOD_NOTES: Cell viability (CellTiter-Glo ATP content) in A549 cells
# Format: cell-based
# TEST_SETTINGS: Homo sapiens, A549, 72 h, 72 hours treatment, cell survival by CellTiter-Glo, 2% fetal bovine serum
MEASURED_ATTRIBUTE: IC50

>  <COMPOUND>
COCCNC(=O)C1(C)C(c2ccsc2)C(c2ccc(F)cc2)=NN1c1ccc(F)cc1F (stereo not drawn)

>  <MEASURED_ATTRIBUTE>
IC50

>  <RECORDED_MEASUREMENT>
< 0.25 µM

$$$$
>  <COMPOUND>
CCCCC1C(c2ccc(F)cc2)=NN(c2ccccc2)C1(C)C(=O)N[C@H](C)c1ccccc1 (stereo partly drawn)

>  <MEASURED_ATTRIBUTE>
IC50

>  <RECORDED_MEASUREMENT>
> 2 µM

$$$$
>  <COMPOUND>
COCCNC(=O)C1(C)C(c2cccn2C)C(c2ccc(F)cc2)=NN1c1ccc(F)cc1F (stereo not drawn)

>  <MEASURED_ATTRIBUTE>
IC50

>  <RECORDED_MEASUREMENT>
> 2 µM

$$$$
>  <COMPOUND>
CCCCC1C(c2ccc(F)cc2)=NN(c2ccccc2)C1(C)C(=O)NCCC(C)N(C)C (stereo not drawn)

>  <MEASURED_ATTRIBUTE>
IC50

>  <RECORDED_MEASUREMENT>
0.5 to 1 µM

$$$$
>  <COMPOUND>
CC(C)(C)OC(=O)N1CCOC(CNC(=O)C2(C)C(c3ccc(Cl)o3)C(c3ccc(F)cc3F)=NN2c2ccc(F)cc2F)C1 (stereo not drawn)

>  <MEASURED_ATTRIBUTE>
IC50

>  <RECORDED_MEASUREMENT>
> 2 µM

$$$$
>  <COMPOUND>
CCCCC1C(c2ccc(F)cc2)=NN(c2ccc(F)c(OC)c2)C1(C)C(=O)NCCCC(C)(C)CO (stereo not drawn)

>  <MEASURED_ATTRIBUTE>
IC50

>  <RECORDED_MEASUREMENT>
> 2 µM

$$$$
>  <COMPOUND>
CCCCC1C(c2ccc(F)cc2)=NN(c2ccc(Cl)cc2C)C1(C)C(=O)NCCCC(C)(C)CO (stereo not drawn)

>  <MEASURED_ATTRIBUTE>
IC50

>  <RECORDED_MEASUREMENT>
> 2 µM

$$$$
>  <COMPOUND>
CCCCC1C(c2ccc(F)cc2)=NN(c2ccccc2)C1(C)C(=O)NCc1cccs1 (stereo not drawn)

>  <MEASURED_ATTRIBUTE>
IC50

>  <RECORDED_MEASUREMENT>
> 2 µM

$$$$
>  <COMPOUND>
CC(C)(CO)CCCNC(=O)C1(C)C(c2ccco2)C(c2ccc(F)cc2F)=NN1c1ccc(F)cc1F (stereo not drawn)

>  <MEASURED_ATTRIBUTE>
IC50

>  <RECORDED_MEASUREMENT>
0.5 to 1 µM

$$$$
>  <COMPOUND>
CCCCC1C(c2ccc(F)cc2)=NN(c2ccccc2)C1(C)C(=O)NCc1cc(Cl)cc(Cl)c1 (stereo not drawn)

>  <MEASURED_ATTRIBUTE>
IC50

>  <RECORDED_MEASUREMENT>
> 2 µM

$$$$
>  <COMPOUND>
CC(C)(CO)CCCNC(=O)C1(C)C(c2ccsc2)C(c2ccc(F)cc2F)=NN1c1ccc(F)cc1F (stereo not drawn)

>  <MEASURED_ATTRIBUTE>
IC50

>  <RECORDED_MEASUREMENT>
0.5 to 1 µM

$$$$
>  <COMPOUND>
COCCNC(=O)C1(C)C(c2ccco2)C(c2ccc(F)cc2F)=NN1c1ccc(F)cc1F (stereo not drawn)

>  <MEASURED_ATTRIBUTE>
IC50

>  <RECORDED_MEASUREMENT>
0.25 to 0.5 µM

$$$$
>  <COMPOUND>
Cc1ccc(C2C(c3ccc(F)cc3)=NN(c3ccc(F)cc3F)C2(C)C(=O)NCCCC(C)(C)CO)s1 (stereo not drawn)

>  <MEASURED_ATTRIBUTE>
IC50

>  <RECORDED_MEASUREMENT>
> 2 µM

$$$$
>  <COMPOUND>
CN1CCOC(CNC(=O)C2(C)C(c3ccc(Cl)o3)C(c3ccc(F)cc3F)=NN2c2ccc(F)cc2F)C1 (stereo not drawn)

>  <MEASURED_ATTRIBUTE>
IC50

>  <RECORDED_MEASUREMENT>
< 0.25 µM

$$$$
>  <COMPOUND>
CCCCC1C(c2ccc(F)cc2)=NN(c2cccc(F)c2)C1(C)C(=O)NCCCCC(C)(C)O (stereo not drawn)

>  <MEASURED_ATTRIBUTE>
IC50

>  <RECORDED_MEASUREMENT>
> 2 µM

$$$$
